B1: SAT2 (parent)
chain: LTEAEGWHFFCFQGEATRKLAGK

Variants of: B1
Test: protein stability index of a GFP-peptide fusion (GPS, HEK-293T) (PSI 1-6); higher = more stable;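 note: lentivirally expressed fusions sorted by FACS into six bins by GFP to DsRed ratio, PSI derived from sequencing read proportions per bin multiplied by bin number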
Settings: c terminus: native
# reported protein stability index; entries follow

{"mutant_name": "K19G", "protein stability index": 2.25}
{"mutant_name": "C11M", "protein stability index": 2.6}
{"mutant_name": "T2N", "protein stability index": 2.75}
{"mutant_name": "T17R", "protein stability index": 2.26}
{"mutant_name": "F12N", "protein stability index": 3.84}
{"mutant_name": "T2C", "protein stability index": 1.99}
{"mutant_name": "K19Y", "protein stability index": 2.11}
{"mutant_name": "E3R", "protein stability index": 1.43}
{"mutant_name": "C11P", "protein stability index": 3.7}
{"mutant_name": "W7K", "protein stability index": 3.88}
{"mutant_name": "C11S", "protein stability index": 3.68}
{"mutant_name": "A21M", "protein stability index": 1.91}
{"mutant_name": "A16F", "protein stability index": 1.59}
{"mutant_name": "E5C", "protein stability index": 1.26}
{"mutant_name": "W7C", "protein stability index": 3.87}
{"mutant_name": "F9Y", "protein stability index": 2.69}
{"mutant_name": "G14M", "protein stability index": 1.76}
{"mutant_name": "Q13D", "protein stability index": 3.14}
{"mutant_name": "T17Q", "protein stability index": 2.63}
{"mutant_name": "K23L", "protein stability index": 1.86}
{"mutant_name": "A21W", "protein stability index": 2.34}
{"mutant_name": "A4V", "protein stability index": 1.64}
{"mutant_name": "L20E", "protein stability index": 3.6}
{"mutant_name": "H8N", "protein stability index": 3.91}
{"mutant_name": "G14S", "protein stability index": 1.73}
{"mutant_name": "E3L", "protein stability index": 1.58}
{"mutant_name": "C11G", "protein stability index": 3.13}
{"mutant_name": "T2Y", "protein stability index": 1.56}
{"mutant_name": "G14N", "protein stability index": 2.76}
{"mutant_name": "H8A", "protein stability index": 2.21}
{"mutant_name": "G6V", "protein stability index": 2.15}
{"mutant_name": "F12M", "protein stability index": 2.5}
{"mutant_name": "G22C", "protein stability index": 1.07}
{"mutant_name": "R18Q", "protein stability index": 1.87}
{"mutant_name": "F10M", "protein stability index": 3.39}
{"mutant_name": "H8V", "protein stability index": 1.91}
{"mutant_name": "Q13T", "protein stability index": 1.35}
{"mutant_name": "R18D", "protein stability index": 3.15}
{"mutant_name": "F9P", "protein stability index": 4.17}
{"mutant_name": "F12S", "protein stability index": 3.73}
{"mutant_name": "T17H", "protein stability index": 1.77}
{"mutant_name": "T17P", "protein stability index": 3.05}
{"mutant_name": "A21Q", "protein stability index": 3.17}
{"mutant_name": "A4H", "protein stability index": 3}
{"mutant_name": "K23T", "protein stability index": 2.33}
{"mutant_name": "F12Q", "protein stability index": 4.04}
{"mutant_name": "A4E", "protein stability index": 3.14}
{"mutant_name": "A16Q", "protein stability index": 2.58}
{"mutant_name": "E3T", "protein stability index": 2.11}
{"mutant_name": "T2I", "protein stability index": 3.08}
{"mutant_name": "C11T", "protein stability index": 2.94}
{"mutant_name": "G22N", "protein stability index": 2.67}
{"mutant_name": "T17I", "protein stability index": 1.35}
{"mutant_name": "G22K", "protein stability index": 2.7}
{"mutant_name": "E5Y", "protein stability index": 1.97}
{"mutant_name": "G14P", "protein stability index": 1.83}
{"mutant_name": "G6F", "protein stability index": 1.79}
{"mutant_name": "G6N", "protein stability index": 2.56}
{"mutant_name": "F12L", "protein stability index": 2.48}
{"mutant_name": "F12T", "protein stability index": 3.88}
{"mutant_name": "E15W", "protein stability index": 1.77}
{"mutant_name": "A21N", "protein stability index": 2.55}
{"mutant_name": "G14E", "protein stability index": 2.83}
{"mutant_name": "L20I", "protein stability index": 2.34}
{"mutant_name": "T17N", "protein stability index": 2.53}
{"mutant_name": "E3C", "protein stability index": 1.89}
{"mutant_name": "T17S", "protein stability index": 1.48}
{"mutant_name": "A16R", "protein stability index": 1.98}
{"mutant_name": "H8G", "protein stability index": 3.25}
{"mutant_name": "F9H", "protein stability index": 3.48}
{"mutant_name": "F9T", "protein stability index": 3.64}
{"mutant_name": "A21D", "protein stability index": 2.73}
{"mutant_name": "T2S", "protein stability index": 2.34}
{"mutant_name": "T2G", "protein stability index": 1.76}
{"mutant_name": "G14W", "protein stability index": 2.8}
{"mutant_name": "T2R", "protein stability index": 2.14}
{"mutant_name": "E3D", "protein stability index": 2.49}
{"mutant_name": "C11L", "protein stability index": 2.42}
{"mutant_name": "F9E", "protein stability index": 4.43}
{"mutant_name": "R18P", "protein stability index": 2.58}
{"mutant_name": "G6R", "protein stability index": 3.03}
{"mutant_name": "H8I", "protein stability index": 2.19}
{"mutant_name": "A21R", "protein stability index": 1.71}
{"mutant_name": "K23V", "protein stability index": 1.49}
{"mutant_name": "K19L", "protein stability index": 2.93}
{"mutant_name": "T2P", "protein stability index": 2.12}
{"mutant_name": "K23N", "protein stability index": 2.85}
{"mutant_name": "K23I", "protein stability index": 2.17}
{"mutant_name": "L1K", "protein stability index": 2.81}
{"mutant_name": "W7S", "protein stability index": 4.22}
{"mutant_name": "A16H", "protein stability index": 2.63}
